In this section we review reported EC50 values for a set of compounds.
target: F508delCFTR (Homo sapiens, UniProt P13569, DEL508-508); construct: expressed in transfected cells; host or cells: CFBE41o- human lung-derived epithelial cells (CFBE41o-F508delCFTR-HRP), doxycycline-inducible; experiment: Cell Surface Expression-Horse Radish Peroxidase (CSE-HRP) assay, test compound without co-corrector; format: cell-based; conditions: test compound without co-corrector
Sequence (P13569 with tags, fused parts or gaps DEL508-508): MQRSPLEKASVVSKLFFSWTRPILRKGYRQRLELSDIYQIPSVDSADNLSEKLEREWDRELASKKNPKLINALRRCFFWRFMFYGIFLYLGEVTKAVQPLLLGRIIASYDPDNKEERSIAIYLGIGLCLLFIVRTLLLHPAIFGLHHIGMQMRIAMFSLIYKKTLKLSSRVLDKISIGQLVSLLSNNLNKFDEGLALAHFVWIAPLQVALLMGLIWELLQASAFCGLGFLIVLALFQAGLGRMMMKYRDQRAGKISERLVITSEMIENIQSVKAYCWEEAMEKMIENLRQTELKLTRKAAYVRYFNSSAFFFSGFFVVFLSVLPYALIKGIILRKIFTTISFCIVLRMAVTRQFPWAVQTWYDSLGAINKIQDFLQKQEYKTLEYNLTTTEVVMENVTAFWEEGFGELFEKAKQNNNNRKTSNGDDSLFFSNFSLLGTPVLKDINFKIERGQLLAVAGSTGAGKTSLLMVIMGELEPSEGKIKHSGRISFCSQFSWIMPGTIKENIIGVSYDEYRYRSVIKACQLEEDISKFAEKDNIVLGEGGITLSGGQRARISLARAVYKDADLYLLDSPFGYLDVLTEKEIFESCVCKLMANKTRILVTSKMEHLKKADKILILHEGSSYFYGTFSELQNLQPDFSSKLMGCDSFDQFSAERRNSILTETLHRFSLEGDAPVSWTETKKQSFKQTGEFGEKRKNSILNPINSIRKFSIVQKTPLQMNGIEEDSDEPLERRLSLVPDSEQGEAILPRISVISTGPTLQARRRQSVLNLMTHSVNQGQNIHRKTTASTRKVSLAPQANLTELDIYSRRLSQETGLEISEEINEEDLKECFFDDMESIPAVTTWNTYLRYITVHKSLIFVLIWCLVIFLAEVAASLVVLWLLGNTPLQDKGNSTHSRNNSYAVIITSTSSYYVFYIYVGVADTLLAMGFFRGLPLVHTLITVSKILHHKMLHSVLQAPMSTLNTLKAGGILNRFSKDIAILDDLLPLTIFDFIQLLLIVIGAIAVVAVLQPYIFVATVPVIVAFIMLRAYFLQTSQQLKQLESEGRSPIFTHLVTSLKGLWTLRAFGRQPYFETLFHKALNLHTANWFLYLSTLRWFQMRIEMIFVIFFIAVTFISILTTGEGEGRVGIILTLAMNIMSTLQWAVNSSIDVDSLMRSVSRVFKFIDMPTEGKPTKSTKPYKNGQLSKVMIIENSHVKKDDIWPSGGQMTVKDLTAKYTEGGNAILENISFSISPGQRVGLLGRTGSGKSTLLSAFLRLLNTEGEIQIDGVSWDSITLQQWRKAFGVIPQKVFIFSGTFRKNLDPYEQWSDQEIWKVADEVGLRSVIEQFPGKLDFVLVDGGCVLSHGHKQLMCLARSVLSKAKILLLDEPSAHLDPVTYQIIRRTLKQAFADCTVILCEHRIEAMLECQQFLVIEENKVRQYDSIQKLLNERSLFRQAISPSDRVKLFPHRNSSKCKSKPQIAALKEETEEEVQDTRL

COc1ccc(C2CCC2)c2c1[C@H](C(=O)NS(=O)(=O)c1cccc3ncccc13)CC2 [Example I-103] ... 3 to 10 µM
COc1cccc2c1CCC2C(=O)NS(=O)(=O)c1cccc(C#N)c1 (stereo not drawn) [III-64] ... ≥ 10 µM
COc1ccc(Br)c2c1C(C(=O)NS(=O)(=O)c1cccc3nc(C(C)C)ccc13)CC2 (stereo not drawn) [II-132] ... < 3 µM
COc1cccc2c1CCC2C(=O)NS(=O)(=O)c1cccc(Cl)c1 (stereo not drawn) [III-35] ... ≥ 10 µM
COc1ccc(C2CCC2)c2c1[C@@H](C(=O)NS(=O)(=O)c1cccc3ccccc13)CC2 [Example I-80] ... 3 to 10 µM
COc1ccc(C(F)(F)F)c2c1[C@@H](C(=O)NS(=O)(=O)c1cccc3ccccc13)CC2 [Example I-93] ... 3 to 10 µM

# input for lookup
# query: EC50 of entry C=C(C)c1ccc(OC)c2c1CCC2C(=O)NS(=O)(=O)c1cccc2ccccc12 (stereo not drawn) [Example I-124]
< 3 µM

---

molecular target: F508delCFTR (Homo sapiens, UniProt P13569, DEL508-508); construct: expressed in transfected cells; host or cells: CFBE41o- human lung-derived epithelial cells (CFBE41o-F508delCFTR-HRP), doxycycline-inducible; experiment: Cell Surface Expression-Horse Radish Peroxidase (CSE-HRP) assay, test compound with co-corrector; format: cell-based; details: with 2 μM co-corrector
pEC50: −log10 of the molar value.
// pEC50 lookup, one value per entry

Cc1ccccc1S(=O)(=O)NC(=O)C1CCc2c(-c3ccccc3)cccc21 (stereo not drawn) [Example II-36] ... 5.00 to 5.52
COc1cccc2c1CCC2C(=O)NS(=O)(=O)c1c(C(=O)OC(C)(C)C)c(C)nn1C (stereo not drawn) [III-68] ... ≤ 5.00
O=C(NS(=O)(=O)c1cccc2ccccc12)C1CCCc2cccc(C3CCC3)c21 (stereo not drawn) [Example I-82] ... > 5.52
COc1ccc(Br)c2c1CCC[C@H]2C(=O)NS(=O)(=O)c1cccc2ccccc12 [Example I-49] ... > 5.52
COc1cccc2c1CCC2C(=O)NS(=O)(=O)c1ccc(NC(C)=O)cc1 (stereo not drawn) [III-41] ... ≤ 5.00
Cc1ccccc1S(=O)(=O)NC(=O)C1CCc2c(Br)cccc21 (stereo not drawn) [II-33] ... 5.00 to 5.52
O=C(NS(=O)(=O)c1cccc2ccccc12)C1CCc2c(Br)cccc21 (stereo not drawn) [II-75] ... > 5.52
CCC1(C(=O)NS(=O)(=O)c2cccc3ccccc23)Cc2cccc(OC)c21 (stereo not drawn) [II-118] ... > 5.52

Attention now shifts to the item below.
Form field: reported pEC50 of COc1cccc2c1CCC2C(=O)NS(=O)(=O)c1ccccc1Br (stereo not drawn) [II-39]
5.00 to 5.52
